# Tested on: SF-295 CNS
# assay.notes: NCI-60 one-dose screen, 48 h (100 = growth as untreated, 0 = no growth, -100 = all killed)
# condition.notes: 10 µM
# Description: Cells are grown in 96 well plates and exposed to the test compound for 48 hours. Compounds are tested at a single concentration, which is 10^-5 M for most compounds. The reported endpoint is percent growth (GI% or GIPRCNT), where numbers from 0 - 100% represent growth inhibition, and numbers from -100% - 0 represent cell death. For example, a value of 40 represents 60% growth inhibition. A value of 0 means no net growth occurred over the course of the experiment. […]
Compounds without any hit were thinned out: in the full panel of roughly 83,000, 20% have a hit.
# growth annotations
Give the value in % but do not write % after it.

These recorded examples may help you get a feel for the data.
O=C(CSc1nnc(-c2c[nH]c3ccccc23)n1-c1ccccc1)Nc1ccc(C(=O)/C=C/c2ccc(Br)cc2)cc1    74.8
COc1ccccc1NCc1ccc(CO)n1-c1ccc(C)cc1    100
Cc1ccc(-c2cc(-c3cc4ccccc4nc3Cl)[nH]c(=S)n2)cc1    45.1
COc1cc2oc(-c3cccc(C(=O)Nc4ccc(Cl)cc4)c3)cc(=O)c2c(OCCNC(=O)CNC(=O)OC(C)(C)C)c1OC    50.6

Here is the next item to consider.
Returns the measured growth for the input compound. Input: COc1cc(NC(=O)c2cc(-c3ccc(F)cc3F)ccc2O)cc(OC)c1OC
65.5
